Would you mind telling me the reported SPOT signal as a fraction of Bim BH3's signal on the same receptor and array of each entry?
- tgt: Bcl-xL, Q07817
- Sequence (Q07817 1-209): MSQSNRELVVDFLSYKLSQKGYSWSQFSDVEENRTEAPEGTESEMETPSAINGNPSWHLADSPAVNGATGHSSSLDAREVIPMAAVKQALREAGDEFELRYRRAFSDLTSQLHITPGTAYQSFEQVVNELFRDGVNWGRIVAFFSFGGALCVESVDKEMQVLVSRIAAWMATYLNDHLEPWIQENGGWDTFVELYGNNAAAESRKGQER
- testDescription: peptide SPOT array, c-Myc-tagged receptor at 1 uM or 100 nM, anti-c-Myc-Cy3
Lab note: write the figure by itself, no unit.

The measured SPOT signal as a fraction of Bim BH3's signal on the same receptor and array associated with IVGGCVVGIADARFADFIRGMLKLIL [DIRC2] reads 0.15

The measured SPOT signal as a fraction of Bim BH3's signal on the same receptor and array associated with EEQLEKLIKKLRKASEGLNSTLKDHI [CCDC76] reads 0.03

The measured SPOT signal as a fraction of Bim BH3's signal on the same receptor and array associated with VDFYQPTCIVDQCGADSLGCDRLGCF [HDAC3] reads 0.01

The measured SPOT signal as a fraction of Bim BH3's signal on the same receptor and array associated with FLRINTIAMRLLAYALDYWSKGQLKA [PANK2] reads 0.19
